B1: TMEM106C (parent)
chain: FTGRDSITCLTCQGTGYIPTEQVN

Variants of: B1
Assay: protein stability index of a GFP-peptide fusion (GPS, HEK-293T) (PSI 1-6); higher = more stable;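 also: lentivirally expressed fusions sorted by FACS into six bins by GFP to DsRed ratio, PSI derived from sequencing read proportions per bin multiplied by bin number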
Conditions: c terminus: a fixed tail appended
Below is a list of entries, each paired with its recorded protein stability index value.
Give the figure only, with no unit attached.

Here's what some known entries look like.
V23F: 1.73
G14V: 2.35
S6V: 2.5

Ask: Name the recorded protein stability index of the variant listed here: N24A
Result: 1.89

Ask: Name the recorded protein stability index of the variant listed here: Y17P
Result: 1.91

Ask: Name the recorded protein stability index of the variant listed here: T2H
Result: 3.35

Ask: Name the recorded protein stability index of the variant listed here: T20P
Result: 1.74

Ask: Name the recorded protein stability index of the variant listed here: G16T
Result: 2.04

Cited source for all entries: the supplement of paper PMC10567573
